Recorded AFP+/HLA A2.1+ HepG2 Cytotoxicity for the following sequences
# System: AFP+/HLA A2.1+ HepG2
# Measurement notes: 4 hour 51Cr-release assay of peptide-generated CTL against HepG2
# Assay type: cell-based, human
# Condition details: E:T 20:1
Where no end group is shown, it is not given here.

| Sequence code | AFP+/HLA A2.1+ HepG2 Cytotoxicity, % |
| --- | --- |
| TMKQEFLINL [AFP22] | 24 |
| FMNKFIYEI [AFP5] | 7 |
| KLVLDVAHV [AFP4] | 7 |
| NLVKQKPQI [AFP23] | 15 |

* * *

Entries annotated with measured AFP+/HLA A2.1+ HepG2 Cytotoxicity
# Test system: AFP+/HLA A2.1+ HepG2
# Measurement notes: 4 hour 51Cr-release assay of peptide-generated CTL against HepG2
# Format: cell-based, human
# Condition details: E:T 50:1
Where no end group is shown, it is not given here.

| Sequence code | Result units | AFP+/HLA A2.1+ HepG2 Cytotoxicity |
| --- | --- | --- |
| LLNFTESRT [AFP7] | % | 15 |
| MKWVESIFL [AFP38] | % | 12 |
| GVALQTMKQ [AFP49] | % | 45 |
| FQAITVTKL [AFP45] | % | 27 |
| PVNPGVGQC [AFP39] | % | 29 |
